experiment: folding stability dG unfold from chymotrypsin proteolysis; higher = more stable
Label scheme for folding stability dG unfold: lower than 3 kcal/mol is criterion not met, 3 kcal/mol and above is criterion met.

Here's what some known entries look like.
Decide: is the reported value of folding stability dG unfold for SAGGSAGGSAGGGMIPVSTSETVVPGPSRLVRRTTTTYRDPVTGKLYTTSSTTVLPPAASAGGSAGGSAGGS [r10_190_JUSTAS] equal to or greater than 3 kcal/mol?
criterion not met

Decide: is the reported value of folding stability dG unfold for SAGKPESFSIEAPPIAPPEFPLGGSYRTLPNGEVLVLITLPDGTVLVLPSLDELRELRESGLPIDISPSSAG [r5_42_TrMRF] equal to or greater than 3 kcal/mol?
criterion not met

Decide: is the reported value of folding stability dG unfold for SAGGPISVGEIEHAADNVDNSHQNGDPNEMMELYDEAEEIQDQYEENGDPEVRDEVKKVVERAKRHMGSAGG [r13_137_TrROS] equal to or greater than 3 kcal/mol?
criterion not met

---
Decide: is the reported value of folding stability dG unfold for SAGGMKLEILEKSENRIIIRTDEGKIYIAPEIVKKLKEKGGNIKPTLDEIIEWLEKNNIPAEDAVFGDSAGG [r13_610_TrMRF] equal to or greater than 3 kcal/mol?
criterion not met

Decide: is the reported value of folding stability dG unfold for SAIKIKNVEFNDNGWMEIEIPYPENGREVTIRMDPNGNIQVEEYPPNDGKPKRKTIPGMSIEEILEELLSAG [r14_760_TrROS] equal to or greater than 3 kcal/mol?
criterion not met

Decide: is the reported value of folding stability dG unfold for SAGMKEVTVSKDELEEILKKLPPNKTYKVTLYNPNGPTYEFTVTVENDTIKINEGPPNKSENLKVTLVSSAG [r5_85_JUSTAS] equal to or greater than 3 kcal/mol?
criterion not met

Decide: is the reported value of folding stability dG unfold for SAEKTLTIPITLENGATLTITVYEDRIEATLEVDGLTGTGYTLPDGTVVLNLRAPGNKPIASPVFTLDLSAG [r14_213_TrMRF] equal to or greater than 3 kcal/mol?
criterion not met

Decide: is the reported value of folding stability dG unfold for SAGGSAGGSAGGSMTVTVTLKDGSTRTFAVPADAPLTLEQLEAAGYPAADIAEVTVTAESAGGSAGGSAGGS [r10_565_JUSTAS] equal to or greater than 3 kcal/mol?
criterion met

Decide: is the reported value of folding stability dG unfold for SAGGKKKVTIEIRKNPEEPGKYIIRVKVDGKEIEIEVSEEDLEEILAALKKLLPPGAKIEKIEIRELPSAGG [r13_519_TrROS_Hall] equal to or greater than 3 kcal/mol?
criterion met

Decide: is the reported value of folding stability dG unfold for SAGGKKTVKIEIVLPKEELEELLKKLLEEAKKKGLKVEVKVELKEVEVEVNGKKKKVLVLKVEIKVEPSAGG [r13_974_TrROS_Hall] equal to or greater than 3 kcal/mol?
criterion met

Decide: is the reported value of folding stability dG unfold for SAGGSAGGSIPEILKKIGISPEVVTEVEVTPVEKLPDSLVVKVTYTYKLPNGTTETKTVTVPIGSAGGSAGG [r6_776_JUSTAS] equal to or greater than 3 kcal/mol?
criterion not met

Decide: is the reported value of folding stability dG unfold for SAGGSAGGSAGGSGMTYRTVEIEVRLPEVPGKTVKITIVVPEGATEEEIKALAEELARKSAGGSAGGSAGGS [r4_442_TrROS_Hall] equal to or greater than 3 kcal/mol?
criterion not met

Decide: is the reported value of folding stability dG unfold for SAGGSAGGSAGMTLEELAAADPDAVVPVKVPGTDTDVDVTVEPGAVRFTFPDGTTATVPASAGGSAGGSAGG [r17_128_JUSTAS] equal to or greater than 3 kcal/mol?
criterion not met

Decide: is the reported value of folding stability dG unfold for SAGGSAMLKVTERTVEVEVFDEEGNPIGWRERKIVVEDPLSPEPRPPPPPVDPVLAAETLGADVLESAGGSA [r15_572_JUSTAS] equal to or greater than 3 kcal/mol?
criterion not met

====

assay: folding stability dG unfold from chymotrypsin proteolysis; higher = more stable
Each entry falls in a class defined on folding stability dG unfold; the bands are low value (below 1 kcal/mol), medium value (1 kcal/mol to below 4 kcal/mol), high value (4 kcal/mol or more)

Here's what some known entries look like.
Bin? SAGGNWIWRIKFPGRSIHFNWEQGNIEIWPPDGEEKTIPLPPGEPLEEFADEFAEKNGFDKVEIEPVPSAGG [r13_852_TrROS]
medium value

Bin? SAMPLEDMTPEQAEEFAKEFINRFQQENQKKGGPIPPGQEIEIPVRYKGGPVYIKITVTNPGNINIEVESAG [r14_501_TrROS]
low value

Bin? SAGGSAGGSAKKYVLLVTYRHPENGETRTVLVEVETEEEVERAVKELAPPEFDEVKVYVLPASAGGSAGGSA [r18_258_TrMRF]
medium value

Bin? SAGGSAGGSMETITLPEDVKVEVVEVEPGSVIEVEFEDGLVARVRIDPENLEKVEIEVFPKEESAGGSAGGS [r12_648_TrROS_Hall]
low value

---
Bin? SAMKLTTLSESSDPATGVRYLTVAIPSSQDDLIKEIAEELEKKGVKATILTPNVPAGSSVTIKLEFKGKSAG [r14_354_JUSTAS]
low value

Bin? SAGGPDIKIKWKIEVNPDNGMIWLTMEIEVPNPNGDFYKVRADIYIPIVNPDDGKFPIFIMLEVEPVPSAGG [r13_715_TrROS]
high value

Bin? SKIKIKAKDKKTNIPIDEIDIYPLEDGSYGIKIIFTFPKEKKEITIPIPKNKKIEEFIKALGLEEIEIDASA [r9_492_TrMRF]
medium value

Bin? SAGGSAGGSAGGSQDLVKITIKLPGGEEKEITTPAEEIDKAIKELGIKKEDVEILEITEVSAGGSAGGSAGG [r7_211_JUSTAS]
medium value

Bin? SAGGSAGGSAMKTSSGTVSFPDSTVKLSYENFGDGSVKKSVVEVVSRPPPPPVPPSNPHYLQSAGGSAGGSA [r18_176_JUSTAS]
low value

====

experiment: folding stability dG unfold from trypsin proteolysis; higher = more stable
Catalogue of sequences with associated folding stability dG unfold
Please state the number and follow it with the unit.

Solved cases (5 shown):
Please give measured folding stability dG unfold of the following entry: SKKVKIVIKIKVEVTNKDGKKKTFEFTLVIELSEEEIEKLKKKIEDLLNELKKKYPNIKKVEITEIKILPSA [r9_436_TrROS_Hall]
3.59 kcal/mol

Please give measured folding stability dG unfold of the following entry: SAGGSAGGSAGGMTITIKVPPNMTEEQLRELARELARKLGLEDVEVRIERREDGTVRITFSAGGSAGGSAGG [r7_810_TrROS_Hall]
4.91 kcal/mol

Please give measured folding stability dG unfold of the following entry: SAGGSAGGSGGFLVLEFEIEVDPEDPEKALAVVEALVESLGFEPVLIEVEEDENRVRVRVLLGSAGGSAGGS [r12_731_TrMRF]
2.93 kcal/mol

Please give measured folding stability dG unfold of the following entry: SAGGSAGGMEEIVLPIPEEVAKELIASGTVTKTQTEGNRTILTKTPPSGGSTKITVVLPPSYPSSAGGSAGG [r6_654_JUSTAS]
1.2 kcal/mol

Please give measured folding stability dG unfold of the following entry: SAGGSADPEKVKLIEVEVEVHVEYDPEKGTYTVKAEFPDLTLSFEVPADSIHPDEKFKAPVLILVLSAGGSA [r15_190_TrMRF]
2.29 kcal/mol

---
Please give measured folding stability dG unfold of the following entry: SAGGSGRQMVRNIVRHALDQQQQHGKPIDKIYIFGPPNMRKEIKKELEEEGLPPGVKITIVPAEDMQSAGGS [r16_164_TrROS]
0.761 kcal/mol

Please give measured folding stability dG unfold of the following entry: SAGGGEKWKIKFKDAEAYINAPEGKVEIVPPDGSKITIDFPPDIPPEVVAKLLAEELGFDEAEIEPVESAGG [r13_852_TrMRF]
-0.263 kcal/mol

Please give measured folding stability dG unfold of the following entry: SAGGMPKIVEIEILSEEYDPSTGVRTYTAKVTYPDGTEEVVTIPVDLTDGNATEEEVKKRVEELVLESAGGS [r16_221_JUSTAS]
3.95 kcal/mol

Please give measured folding stability dG unfold of the following entry: SAGGNYYPMEFRNPENNHEIRITVERDPPGMYRINIQIENPNGNQIPFPMTMPPDDFKPGDEFEIKIPSAGG [r13_959_TrROS]
0.676 kcal/mol

Please give measured folding stability dG unfold of the following entry: SAGGSAGGPEIEVRFPDGWYVKITVERPEDGKVTVKVEVYHPDPNGKPIPPETAKNLAKEFLNKSAGGSAGG [r6_235_TrROS]
0.945 kcal/mol
